tested target: GST-Nv-NF-kB (Cys allele) (Nematostella vectensis, UniProt E5G601 2-411)
Sequence: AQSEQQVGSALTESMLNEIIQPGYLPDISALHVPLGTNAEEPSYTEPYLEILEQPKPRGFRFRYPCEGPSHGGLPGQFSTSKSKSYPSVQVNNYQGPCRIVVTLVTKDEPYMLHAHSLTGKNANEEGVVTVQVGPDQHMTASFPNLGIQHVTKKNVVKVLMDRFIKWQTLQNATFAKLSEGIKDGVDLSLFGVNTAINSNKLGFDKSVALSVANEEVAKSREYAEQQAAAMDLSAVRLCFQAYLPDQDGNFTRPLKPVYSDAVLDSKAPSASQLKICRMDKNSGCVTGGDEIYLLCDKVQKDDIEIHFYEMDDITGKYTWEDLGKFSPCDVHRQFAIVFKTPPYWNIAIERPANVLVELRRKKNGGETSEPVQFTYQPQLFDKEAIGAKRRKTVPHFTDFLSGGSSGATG
method: protein-binding microarray (PBM); PBM: ~300 nM protein, 6 mM HEPES pH 7.8, 80 mM KCl, 0.5 mM EDTA, 0.5 mM EGTA, 6% glycerol, 35 ng/ul poly-dIdC, 1% milk, 1 h, room temperature; Ap Aiptasia and Nv Nematostella (sea anemones) / Co Capsaspora / Aq Amphimedon (sponge) / Dm Drosophila / Hu human; RHD is the Rel homology domain; high values mean tight binding
measurement parameters: dsDNA, one strand shown

>  <residue string>
CCGATTAACATCAGAAAACCCCATGATGTTAATCGGGTCTTGATTCGCTTGACGCTGCTG

>  <binding signal (z-score)>
5.53

$$$$
>  <residue string>
CCGATTAACATCACAACTCCCCCTGATGTTAATCGGGTCTTGATTCGCTTGACGCTGCTG

>  <binding signal (z-score)>
4.69

$$$$
>  <residue string>
CCGATTAACATCAGATGGGAAAATGATGTTAATCGGGTCTTGATTCGCTTGACGCTGCTG

>  <binding signal (z-score)>
4.24

$$$$
>  <residue string>
CCGATTAACATCAAGGGGGAAAATGATGTTAATCGGGTCTTGATTCGCTTGACGCTGCTG

>  <binding signal (z-score)>
6.58

$$$$
>  <residue string>
CCGATTAACATCAAATAATACCCTGATGTTAATCGGGTCTTGATTCGCTTGACGCTGCTG

>  <binding signal (z-score)>
5.65

$$$$
>  <residue string>
CCGATTAACATCAGGGGGTCACCTGATGTTAATCGGGTCTTGATTCGCTTGACGCTGCTG

>  <binding signal (z-score)>
2.23

$$$$
>  <residue string>
CCGATTAACATCAAAAAATTACCTGATGTTAATCGGGTCTTGATTCGCTTGACGCTGCTG

>  <binding signal (z-score)>
4.07

$$$$
>  <residue string>
CCGATTAACATCACACTTTCCCCTGATGTTAATCGGGTCTTGATTCGCTTGACGCTGCTG

>  <binding signal (z-score)>
6.92

$$$$
>  <residue string>
CCGATTAACATCACTTTTTCCCATGATGTTAATCGGGTCTTGATTCGCTTGACGCTGCTG

>  <binding signal (z-score)>
3.6

$$$$
>  <residue string>
CCGATTAACATCAAACCCCCCCTTGATGTTAATCGGGTCTTGATTCGCTTGACGCTGCTG

>  <binding signal (z-score)>
4.97

$$$$
>  <residue string>
CCGATTAACATCAGGGAAGTACCTGATGTTAATCGGGTCTTGATTCGCTTGACGCTGCTG

>  <binding signal (z-score)>
7.36

$$$$
>  <residue string>
CCGATTAACATCAGGAAAAACCCTGATGTTAATCGGGTCTTGATTCGCTTGACGCTGCTG

>  <binding signal (z-score)>
5.86

$$$$
>  <residue string>
CCGATTAACATCAGGGAATCCTATGATGTTAATCGGGTCTTGATTCGCTTGACGCTGCTG

>  <binding signal (z-score)>
4.16

$$$$
>  <residue string>
CCGATTAACATCAAGTTTACCCCTGATGTTAATCGGGTCTTGATTCGCTTGACGCTGCTG

>  <binding signal (z-score)>
2.2

$$$$
>  <residue string>
CCGATTAACATCAAGAACTTCCCTGATGTTAATCGGGTCTTGATTCGCTTGACGCTGCTG

>  <binding signal (z-score)>
3.73

$$$$
>  <residue string>
CCGATTAACATCACGTGATTCCCTGATGTTAATCGGGTCTTGATTCGCTTGACGCTGCTG

>  <binding signal (z-score)>
2.38

$$$$
>  <residue string>
CCGATTAACATCAGCAAATTCCCTGATGTTAATCGGGTCTTGATTCGCTTGACGCTGCTG

>  <binding signal (z-score)>
5.15

$$$$
>  <residue string>
CCGATTAACATCAGGAATATACCTGATGTTAATCGGGTCTTGATTCGCTTGACGCTGCTG

>  <binding signal (z-score)>
1.47

$$$$

Entry source: paper PMC5700166
